B1: GA-binding protein alpha chain, residues 172 to 250; numbered along this chain, Q06546 (parent)
chain: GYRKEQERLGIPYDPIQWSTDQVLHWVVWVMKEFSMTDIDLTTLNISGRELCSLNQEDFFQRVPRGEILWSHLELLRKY

- Variants of: B1
- procedureText: abundance fitness (aPCA) (normalised: wild type 0, dead -1); higher = more abundant; growth selection in yeast, the domain comes from the species named
- testContext: Homo sapiens
Bucketed by reported abundance fitness, buckets being lower range = under -0.7, middle range = from -0.7 up to -0.1, upper range = -0.1 and over

| mutationName | answerLabel |
| --- | --- |
| I11D | lower range |
| E50W | middle range |
| L76G | lower range |
| W18Q | lower range |
| E5S | lower range |
| T37N | upper range |

Attention now turns to another entry.
Enquiry: Which abundance fitness category applies to S35V here?
Return: middle range
